Assay: Cytotoxicity against human WI38 cells assessed as reduction in cell viability measured after 48 hrs by SRB assay
Type: toxicity, cell-based, WI-38
Could you please report measured IC50 at 48 h for the items listed next?

COMPOUND	IC50 at 48 h
C[C@@H]1CC[C@H]2C(C)(COC(=O)[C@@H]3CCCN3C(=O)C(F)(F)F)O[C@@H]3O[C@]4(C)CC[C@@H]1[C@]32OO4 (some centres not stated)	31.6 µM
Cc1ccsc1C(=O)OCC1(C)O[C@@H]2O[C@]3(C)CC[C@H]4[C@H](C)CC[C@@H]1[C@@]24OO3 (some centres not stated)	> 100 µM

I would be grateful if you could provide IC50 at 48 h for each of the following entries.
1. CCCC(=O)OCC1(C)O[C@@H]2O[C@]3(C)CC[C@H]4[C@H](C)CC[C@@H]1[C@@]24OO3 (some centres not stated)
2. C[C@@H]1CC[C@H]2C(C)(C=O)O[C@@H]3O[C@]4(C)CC[C@@H]1[C@]32OO4 (some centres not stated)
3. CC(=O)OCC1(C)O[C@@H]2O[C@]3(C)CC[C@H]4[C@H](C)CC[C@@H]1[C@@]24OO3 (some centres not stated)

Result:
["> 100 µM", "> 100 µM", "> 100 µM"]

I would be grateful if you could provide IC50 at 48 h for each of the following entries.
1. C[C@@H]1CC[C@H]2C(C)(COC(=O)c3ccc(F)cc3)O[C@@H]3O[C@]4(C)CC[C@@H]1[C@]32OO4 (some centres not stated)
2. C[C@@H]1CC[C@H]2C(C)(COC(=O)c3ccc(-c4ccccc4)cc3)O[C@@H]3O[C@]4(C)CC[C@@H]1[C@]32OO4 (some centres not stated)

Result:
1. > 100 µM
2. > 100 µM

###

Could you please report measured selectivity ratio for the items listed next?
Assay: Selectivity index, ratio of IC50 for human WI38 cells to IC50 for chloroquine-sensitive asexual erythrocyte stage form Plasmodium falciparum NF54
Assay type: toxicity, cell-based, WI-38
Conditions: read-out: Ratio IC50

Examples with their reported selectivity ratio follow.
MOLECULE	selectivity ratio
C[C@@H]1CC[C@H]2C(C)(COC(=O)[C@@H]3CCCN3C(=O)C(F)(F)F)O[C@@H]3O[C@]4(C)CC[C@@H]1[C@]32OO4 (stereo partly specified)	4000
C[C@@H]1CC[C@H]2C(C)(COC(=O)c3ccc([N+](=O)[O-])cc3)O[C@@H]3O[C@]4(C)CC[C@@H]1[C@]32OO4 (stereo partly specified)	> 14900
Cc1ccsc1C(=O)OCC1(C)O[C@@H]2O[C@]3(C)CC[C@H]4[C@H](C)CC[C@@H]1[C@@]24OO3 (stereo partly specified)	> 13900

I would be grateful if you could provide selectivity ratio for each of the following entries.
1. C[C@@H]1CC[C@H]2C(C)(COC(=O)c3cc4ccccc4o3)O[C@@H]3O[C@]4(C)CC[C@@H]1[C@]32OO4 (stereo partly specified)
2. C[C@H]1[C@H](OC(=O)CCC(=O)O)O[C@@H]2O[C@@]3(C)CC[C@H]4[C@H](C)CC[C@@H]1[C@@]24OO3 [ARTESUNATE]
3. C[C@@H]1CC[C@H]2C(C)(COC(=O)c3cccs3)O[C@@H]3O[C@]4(C)CC[C@@H]1[C@]32OO4 (stereo partly specified)

Result:
1. > 6850
2. > 12500
3. > 20800

Data credit: ChEMBL document CHEMBL3865826
